- EXPERIMENTAL_PROTOCOL: in vitro
- EXPERIMENTAL_CONTEXT: male, Sprague-Dawley, rat, microsomes, CLint
Entries and their microsomal CLint at 1 μM

Observe how each entry below is paired with its result.
CCCCCCCCCCCCCCCC(=O)NCCOC(=O)CCC(=O)OC(COC(=O)CCC)COC(=O)CCC	> 139 µL/min/mg
CCCCCCCCCCCCCCCC(=O)NCCOC(=O)CCC(=O)OCC(COC(=O)CCCCCCC)OC(=O)CCCCCCC (stereo not drawn) [Compound I-3, PEA-Succinate-Glycerol-Di-Caprylic]	< 23.1 µL/min/mg
CC/C=C\C/C=C\C/C=C\C/C=C\C/C=C\CCCC(=O)OCCNC(=O)CCCCCCCCCCCCCCC	< 23.1 µL/min/mg
CCCCCCCCCCCCCCCC(=O)NCCOC(=O)CCC(=O)OCC(COC(=O)CCC)OC(=O)CCC (stereo not drawn)	681 µL/min/mg

IN: Endpoint output: microsomal CLint at 1 μM of CCCCCCCCCCCCCCCC(=O)NCCOC(=O)CCC . Value?
OUT: > 1380 µL/min/mg

IN: Name the recorded microsomal CLint at 1 μM for CCCCCCCCCCCCCCCC(=O)NCCOC(=O)CCC(=O)OC(CO)CO .
OUT: > 139 µL/min/mg
